Biological target: caspase-6 (Homo sapiens, UniProt P55212)
Sequence (P55212 24-179 limits assumed): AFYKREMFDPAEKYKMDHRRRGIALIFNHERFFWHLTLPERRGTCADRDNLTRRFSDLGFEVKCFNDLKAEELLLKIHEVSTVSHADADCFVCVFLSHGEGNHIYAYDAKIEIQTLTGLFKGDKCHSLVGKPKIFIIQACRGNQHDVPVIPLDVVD
Sequence (P55212 194-293 limits assumed): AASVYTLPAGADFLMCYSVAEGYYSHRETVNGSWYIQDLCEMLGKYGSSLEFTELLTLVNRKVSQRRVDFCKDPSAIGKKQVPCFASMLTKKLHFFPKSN
Experiment: Biochemical inhibition assay, kinact/Ki with AMAC substrate
Conditions: read-out: kinact/Ki C6
Square brackets hold non-standard residues; d marks the D form. Peptide text beside a SMILES is read from it. * marks the point of attachment. AspCH2OCO(5-Me-thien-2-yl) = Cc1ccc(C(=O)OCC(=O)[C@H](CC(=O)O)N*)s1; Phe(F5) = N[C@@H](Cc1c(F)c(F)c(F)c(F)c1F)C(=O)O; X5 = Cc1cccc(C)c1C(=O)OCC(=O)[C@@H](CC(=O)O)N*; X4 = Cc1ccc(C(=O)OCC(=O)[C@@H](CC(=O)O)N*)s1; X2 = O=C(CCOCCOCCOCCOCCn1cc(CCCF)nn1)*; d(β3hL) = CC(C)C[C@@H](N)CC(=O)O; 3Pal = N[C@@H](Cc1cccnc1)C(=O)O; d3Pal = N[C@H](Cc1cccnc1)C(=O)O; X3 = O=C(CCCc1cn(CCF)nn1)*; X1 = O=C(Cn1cc(CCCF)nn1)*; Ahx = NCCCCCC(=O)O
quantityMeasured: kinact/KI (M⁻¹ s⁻¹)
Express your answer in M⁻¹ s⁻¹, writing the number without its unit.

Some entries whose results are on file:
[
  {
    "compound": "Cc1ccc(C(=O)OCC(=O)[C@@H](CC(=O)O)NC(=O)[C@@H](Cc2ccccc2)NC(=O)C[C@@H](CC(C)C)NC(=O)[C@@H](CC(=O)O)NC(=O)[C@@H](Cc2cccnc2)NC(=O)CCCCCNC(=O)CCCCCNC(=O)CCCc2cn(CCF)nn2)s1 [Inhibitor 1] ({X3-Ahx-Ahx}-[d3Pal][dD][d(β3hL)][dF]-X4)",
    "testedTarget": "caspase-6 (Homo sapiens, UniProt P55212)",
    "kinact/KI [M⁻¹ s⁻¹]": 200
  },
  {
    "compound": "Cc1ccc(C(=O)OCC(=O)[C@H](CC(=O)O)NC(=O)[C@H](Cc2ccccc2)NC(=O)[C@H](Cc2c(F)c(F)c(F)c(F)c2F)NC(=O)[C@H](CC(=O)O)NC(=O)[C@H](Cc2cccnc2)NC(=O)CNC(=O)CNC(=O)CNC(=O)Cn2cc(CCCF)nn2)s1 [Inhibitor 7] (X1-GGG[3Pal]D[Phe(F5)]F-{AspCH2OCO(5-Me-thien-2-yl)})",
    "testedTarget": "caspase-6 (Homo sapiens, UniProt P55212)",
    "kinact/KI [M⁻¹ s⁻¹]": 300
  },
  {
    "compound": "Cc1cccc(C)c1C(=O)OCC(=O)[C@@H](CC(=O)O)NC(=O)[C@@H](Cc1ccccc1)NC(=O)C[C@@H](CC(C)C)NC(=O)[C@@H](CC(=O)O)NC(=O)[C@@H](Cc1cccnc1)NC(=O)CCCCCNC(=O)CCCCCNC(=O)CCCc1cn(CCF)nn1 [Inhibitor 3] ({X3-Ahx-Ahx}-[d3Pal][dD][d(β3hL)][dF]-X5)",
    "testedTarget": "caspase-6 (Homo sapiens, UniProt P55212)",
    "kinact/KI [M⁻¹ s⁻¹]": 5400
  },
  {
    "compound": "Cc1ccc(C(=O)OCC(=O)[C@H](CC(=O)O)NC(=O)[C@H](Cc2ccccc2)NC(=O)[C@H](Cc2c(F)c(F)c(F)c(F)c2F)NC(=O)[C@H](CC(=O)O)NC(=O)[C@H](Cc2cccnc2)NC(=O)CCOCCOCCOCCOCCn2cc(CCCF)nn2)s1 [Inhibitor 5] (X2-[3Pal]D[Phe(F5)]F-{AspCH2OCO(5-Me-thien-2-yl)})",
    "testedTarget": "caspase-6 (Homo sapiens, UniProt P55212)",
    "kinact/KI [M⁻¹ s⁻¹]": 300
  },
  {
    "compound": "Cc1ccc(C(=O)OCC(=O)[C@H](CC(=O)O)NC(=O)[C@H](Cc2ccccc2)NC(=O)[C@H](Cc2c(F)c(F)c(F)c(F)c2F)NC(=O)[C@H](CC(=O)O)NC(=O)[C@H](Cc2cccnc2)NC(=O)CCCCCNC(=O)Cn2cc(CCCF)nn2)s1 [Inhibitor 6] ({X1-Ahx}-[3Pal]D[Phe(F5)]F-{AspCH2OCO(5-Me-thien-2-yl)})",
    "testedTarget": "caspase-6 (Homo sapiens, UniProt P55212)",
    "kinact/KI [M⁻¹ s⁻¹]": 200
  }
]

Now for a further compound.
Task item: Quote kinact/KI reported for Cc1ccc(C(=O)OCC(=O)[C@H](CC(=O)O)NC(=O)[C@H](Cc2ccccc2)NC(=O)[C@H](Cc2c(F)c(F)c(F)c(F)c2F)NC(=O)[C@H](CC(=O)O)NC(=O)[C@H](Cc2cccnc2)NC(=O)CNC(=O)[C@H](CCC(=O)O)NC(=O)CNC(=O)Cn2cc(CCCF)nn2)s1 [Inhibitor 4] (X1-GEG[3Pal]D[Phe(F5)]F-{AspCH2OCO(5-Me-thien-2-yl)}) please.
Reply: 200
